- Tested on: SC27B
- Run description: qHTS profiling for inhibitors of Plasmodium falciparum proliferation (AID 504749); note: nearly all actives have a fitted effect of over 60% in size
- Applied conditions: P. falciparum in erythrocytes, SYBR Green DNA, 72 h; series mostly up to 28.7 µM
Records with an inconclusive call do not appear. The source made the active and inactive calls. Calls come from the whole dose curve; as a rule, active = well fitted inhibition curve with a large enough effect; inconclusive = small, poorly fitted or top-dose-only effect; inactive = flat fitted curve, though single readings scatter.
Outcome codes: active, inactive

>>> class_name("C[C@H]1[C@@H](OC(=O)CCC(=O)O)OC2OC3(C)CC[C@H]4[C@H](C)CC[C@@H]1[C@@]24OO3 (stereo not given in full)")
"active"
>>> class_name("CO/N=C(/C(=O)N[C@@H]1C(=O)N2C(C(=O)O)=C(CSc3nc(C)c(CC(=O)O)s3)CS[C@H]12)c1csc(N)n1")
"inactive"
>>> class_name("O=C(O)CC(O)CC(O)/C=C/c1c(C2CC2)nc2ccccc2c1-c1ccc(F)cc1 (stereo not given)")
"inactive"
>>> class_name("O=C1NC(=O)C2C3C=CC(C3)C12 (stereo not given)")
"inactive"
>>> class_name("CC1CCC(C(C)C)C(O)C1 (stereo not given)")
"inactive"
>>> class_name("CC1(C)SC2C(NC(=O)C(C(=O)O)c3ccccc3)C(=O)N2C1C(=O)O (stereo not given)")
"inactive"
>>> class_name("Cc1ccc(Nc2ncccc2C(=O)O)cc1C")
"inactive"
>>> class_name("CC(C)C(=O)OCC(=O)[C@@]12OC(C3CCCCC3)O[C@@H]1CC1C3CCC4=CC(=O)C=C[C@]4(C)C3[C@@H](O)C[C@@]12C (stereo not given in full)")
"active"
>>> class_name("Nc1ncn(C2C[C@H](O)[C@@H](CO)O2)c(=O)n1 (stereo not given in full)")
"inactive"
>>> class_name("CC(C)(C)C(=O)OCC(=O)C1CCC2C3CCC4=CC(=O)CCC4(C)C3CCC12C (stereo not given)")
"inactive"
